meta.source: PubChem BioAssay

Experiment: reversal of MRP1-mediated doxorubicin resistance, pilot screen, H69AR cells, doxorubicin co-treatment (AID 601)
Conditions: H69AR cells, CellTiter-Glo, 72 h; compound alone cytotoxicity; at 10 µM
ENDPOINT: viability
Returns: string containing the numeric result and its unit.

Entry under review: CC(C)COc1ccc(C(=O)OCCN2CCOCC2)cc1 . Reported viability? 98.2%

Param item: Cc1c(NC(=O)C(C)Oc2ncnc3ccccc23)c(=O)n(-c2ccccc2)n1C (stereo not given) 97%

Repeat for the following molecule: CCOC(=O)N1CCC(NC(=O)c2ccc(OC)c(CN3CC(=O)N4CCCC4C3=O)c2)CC1 (stereo not given) 96%

CC1(C)CC(=O)C2=C(C1)N(Cc1ccco1)C(=O)C2(NC(=O)C1CCCCC1)C(F)(F)F (stereo not given) , same question. 92.1%

One more molecule: Cc1ccc(CNC(=O)C2CC(=O)OC23CCCC3)c(C)c1 (stereo not given) 106%

# repeat for CCC(=O)Oc1ccc(/C(CC)=C(\CC)c2ccc(OC(=O)CC)cc2)cc1 8.75%

Entry to check: O=C(COn1nnc2ccc(C(F)(F)F)cc21)Nc1nnc(-c2ccccc2)o1 97.8%

Ok, now NS(=O)(=O)c1cc2c(cc1C(F)(F)F)NCNS2(=O)=O 109%

How about this molecule: CCCOC(=O)/C(C(N)=NCc1ccccc1)=C(\O)OCCC 88.8%

Next molecule: CC(C)Cc1n[nH]c(=O)[nH]1 98.4%

Continue with CCc1cc(-c2[nH]ncc2-c2ccc3c(c2)OCO3)c(O)cc1O 23.3%

Then what about the molecule CCOC(=O)c1sc2cccc(F)c2c1N ? 88.1%

Quick one: CCc1nnc(NC(=O)CSc2nc3ccccc3s2)s1 101%

What do you get for CS(=O)(=O)N(CC(=O)N1CCCCCC1)c1ccc(Br)cc1 ? 97.9%

Next: CCCN1Cc2cccc(C(=O)NCc3cccs3)c2C1=O 90.6%

Same read-out for O=C1NC2c3ccccc3C(=O)N2c2c1cnn2-c1ccccc1 (stereo not given) ? 50.6%

Please give the result for CC(=O)NCC(=O)OC(C)C(=O)Nc1ccc(C(C)=O)cc1 (stereo not given) too. 95.2%

Can you handle CCOC(=O)Cc1csc(NC(=O)c2cccc(OC)c2)n1 next? 103%

Try this molecule too: COc1nc(C)ccc1-c1noc(-c2ccncc2)n1 95.1%

Field entry: Cc1cc(C(=O)COc2cccc3cccnc23)c(C)n1C 59.1%

Also O=C(CSc1nnnn1C1CCCC1)NCc1ccc2c(c1)OCO2 ? 102%

Now consider CCOC(=O)c1cnc(-n2nc(C)cc2C)nc1Nc1ccc(N(C)C)cc1 . 37.9%

And then COc1ccc(OCCOC(=O)c2cccc(-n3cnnn3)c2)cc1 , what is it? 100%

Quick one: O=S(=O)(c1ccc(OCC(O)CN2CCN(c3ccccc3)CC2)cc1)N1CCOCC1 (stereo not given) 96.4%

Next molecule: COc1ccc(CCNC(=O)CCN2C(=O)C3CC=CCC3C2=O)cc1OC (stereo not given) 105%

Another molecule: CC(=O)c1ccccc1Oc1nc(CN2CCOCC2)nc2scc(-c3cccs3)c12 49.9%

And for O=C(O)c1cc2cc(F)ccc2[nH]1 ? 94.5%

Would you kindly repeat that for COC(=O)c1[nH]c(C)c(/C(O)=C2\C(=O)C(=O)N(CCN3CCOCC3)C2c2cccs2)c1C (stereo not given) ? 17.3%

And then c1cc(C(c2nnnn2C2CCCC2)N2CCOCC2)ccn1 (stereo not given) , what is it? 91.9%

// next record Cc1csc(NC(=O)CSc2nnc(Cc3cccn3C)n2-c2ccc(F)cc2)n1 89.8%

Moving on to Cc1cc(N2C(=O)CC(N3CCN(c4ccc(C(=O)c5cccs5)cc4)CC3)C2=O)no1 (stereo not given) 87.6%

Please do the same for Cc1nnc(N(C)C(=O)Cc2ccc3c(c2)OCO3)s1 as well. 94.6%

Input Cc1cc(-c2ccccc2)nc2cc(C(N)=O)nn12 96%

Check COc1ccccc1-n1c(SCC(=O)Nc2ccc3c(c2)OCO3)nc2c(c1=O)SCC2 too. 87.4%

Then what about the molecule O=C(CCCn1c(=O)c2sccc2n(Cc2ccc(F)cc2)c1=O)NCc1ccco1 ? 27.4%

What about CC1(C)CC(=O)c2c(O)cc(O)cc2O1 ? 99.7%

Another molecule to check: CCOC(=O)C1CCCN(Cc2nc(N)nc(Nc3ccccc3)n2)C1 (stereo not given) 91.1%

Repeat for the following molecule: CCN(CC)S(=O)(=O)c1ccc(C(=O)N2CCN=C2SCc2cccnc2)cc1 84.5%

Would you mind doing COCC(=O)NC(c1ccccc1)c1ccccc1 as well? 89.5%

Try this molecule too: N#Cc1c(N2CCCC2)nc(N)c2c(N)nc(N3CCCC3)cc12 46.3%

Could you do the same for CCOC(=O)c1ccc(NC(=O)CCc2nc(-c3ccc(C)cc3)no2)cc1 , please? 94.3%

Subsequent entry: CCn1c(SCC(=O)Nc2cc(NC(C)=O)ccc2OC)nnc1-c1ccccn1 94.1%

How about this molecule: Cc1cccn2c(=O)c3cc(C(=O)NC4CCCC4)c(=N)n(C4CCCC4)c3nc12 27.6%

// repeat for CC(C)(C)NC(=O)COC(=O)c1snc(C(=O)NC2CCCCC2)c1N and report 101%

Same question for CCOC(=O)N1CCC(n2c(=S)[nH]c3cc(OC)c(OC)cc3c2=O)CC1 please. 57.1%
